system: HCT-15 colon; experiment: NCI-60 one-dose screen, 48 h (100 = growth as untreated, 0 = no growth, -100 = all killed); conditions: 10 µM
This is part of a sample that, as a whole, favours compounds with a hit. Of some 83,000 tested, about 20% had one in any assay. Calls of active or inactive are those of the source. Rule for the calls: active = growth percent below 10; inactive = the rest.
measured endpoint: growth

For reference, reported growth for COC1=CC(=O)OC(c2ccc(OC)cc2)C1 (stereo not given) stands at 121% (inactive)

For reference, reported growth for COc1ccc(/C(C#N)=C/c2cccc(OC)c2OC)cc1 stands at 68.1% (inactive)

For reference, reported growth for COc1cc2c(cc1OC)C(C(CCCCCC(CCC(C)C)C1NCCc3cc(OC)c(OC)cc31)CCC(C)C)NCC2 (stereo not given) stands at -100% (active)

For reference, reported growth for Cc1cc(CC(C)CC(C)(C)C)n(O)c(=O)c1 (stereo not given) (tested in a mixture with another compound) stands at 23.8% (inactive)

For reference, reported growth for CS(=O)(=O)c1nccc(-c2c(-c3cccc(OCCc4ccccc4)c3)nc3sccn23)n1 stands at 108% (inactive)

###

system: K-562 leukemia; experiment: NCI-60 one-dose screen, 48 h; settings: 10 µM
The panel holds about 83,000 compounds, 20% with a hit somewhere; the sample as a whole holds those more often. The source made the active and inactive calls. The calls were made as follows: active = growth percent below 10; inactive = the rest.
Respond only with the outcome that fits, drawn from active, inactive

Fill in: this test's call for CCN(CC)CCCC(Nc1c2ccc(Cl)cc2nc2ccc(OC)cc12)c1ccc(F)cc1 (stereo not given) is ___
active

Fill in: this test's call for COc1cc2c(cc1NC(=O)C(Cl)Cl)-c1ccc(NC(=O)C(Cl)Cl)cc1C2 is ___
inactive

Fill in: this test's call for CCOC(=O)c1cc(C(=O)c2cc(OC)cc(OC)c2)n2nc(C)ccc12 is ___
inactive

Fill in: this test's call for O=C(Cn1cc(CO)nn1)Nc1nc2ccccc2s1 is ___
inactive

Fill in: this test's call for CNS(=O)(=O)Oc1ccc(-c2ccc3occc3c2)cc1 is ___
inactive

Fill in: this test's call for Clc1ccc(/C=C2\CCCC3C2=Nc2ccccc2NC3c2ccc(Cl)cc2)cc1 (stereo not given) is ___
inactive

Fill in: this test's call for O=C(Nc1ccccc1)Nc1ncnc2c1ncn2-c1ccccc1 is ___
inactive

Fill in: this test's call for O=C(NCCCNS(=O)(=O)c1ccc(Cl)cc1)Nc1ccc(-n2cc(-c3ccncc3)c(-c3ccc(Cl)c(O)c3)n2)cc1 is ___
inactive

Fill in: this test's call for CC(=O)[C@H]1CC[C@]2(C)[C@@H]1CC[C@@H]1[C@@]3(C)CC(CCC#N)(CCC#N)C(=O)C(C)(C)[C@@H]3CC[C@]12C is ___
inactive

Fill in: this test's call for CCn1c(CSc2nc3ccccc3c(=O)n2CCc2ccccc2)n[nH]c1=S is ___
inactive

Fill in: this test's call for COC(=O)CC[C@@H](C)[C@H]1CC[C@H]2[C@@H]3CC[C@@H]4C[C@H](O)CC[C@]4(C)[C@H]3C[C@H](O)[C@]12C is ___
inactive

Fill in: this test's call for CCOC(=O)c1sc2ncnc(Nc3ccc4c(cnn4C(=O)Nc4ccccc4)c3)c2c1C is ___
inactive

Fill in: this test's call for O=C(CNc1nnc(-c2cccnc2SCc2ccccc2)s1)Nc1nc(Cl)cc(Cl)n1 is ___
inactive

Fill in: this test's call for CCOC(=O)c1cc(C(=O)c2cc(OC)c(OC)c(OC)c2)n2nc(C)ccc12 is ___
active

Fill in: this test's call for Nc1ncc(-c2cnn(C3CCNCC3)c2)cc1-c1nc2ccccc2o1 is ___
active

Fill in: this test's call for COc1ccc(C(c2ccc(OCCN(C)C)cc2)c2cc3ccccc3c3ccccc23)cc1 (stereo not given) is ___
active

Fill in: this test's call for CCC(=O)OC1CCC2C3CCC(=O)OC3C(C)(CCC(=O)O)CC12C (stereo not given) is ___
active

Fill in: this test's call for CCOC(=O)/C(=C(\C)N)C1CC(=O)NC1=O (stereo not given) is ___
inactive

Fill in: this test's call for O=C(CCNC(=O)c1nc(-c2ccccc2)n(-c2ccc(Cl)cc2)n1)NO is ___
inactive

Fill in: this test's call for N#Cc1c(N)nc(-c2cc(F)cc(C(F)(F)F)c2)nc1-c1ccccc1F is ___
inactive

###

system: RPMI-8226 leukemia; assay: NCI-60 one-dose screen, 48 h (100 = growth as untreated, 0 = no growth, -100 = all killed); details: 10 µM
About 83,000 compounds went through this panel and 20% of them were active in at least one assay; those are over-represented in the sample as a whole.
Provide the recorded growth for the entries that follow.
Output spec: scalar in %, unitless text.

For reference, reported growth for Nc1nc(Cl)nc2c1ncn2C1O[C@H](CO)[C@@H](O)[C@@H]1F (stereo partly specified) stands at 105

For reference, reported growth for O=C(Nc1ccc(F)cc1)c1cc2ccccc2cc1O stands at 37.9

For reference, reported growth for c1ccc2c(c1)Cc1ccccc1N2CCN1CCCCC1 stands at 87.2

For reference, reported growth for CCOC(=O)C1=CSC2=NC3=C(CCC/C3=C\c3ccc(Cl)cc3)C(c3ccc(Cl)cc3)N12 (stereo unspecified) stands at 6.15

For reference, reported growth for Cc1cc(C)nc(NS(=O)(=O)c2ccc(Nc3nc4nc(NCc5ccccc5)nc(-c5ccc(O)cc5)c4c(=O)[nH]3)cc2)n1 stands at 18.1

For reference, reported growth for Nc1nccc(OCCO)n1 stands at 108

For reference, reported growth for COc1ccc(/C=C2\CCCC3=C2NC(N)=NC3c2ccc(OC)cc2)cc1 (stereo unspecified) stands at 57.7

For reference, reported growth for O=C1c2ccccc2C(=O)c2c1ccc1c(=O)n(-c3ccccc3C(F)(F)F)nnc21 stands at 18

For reference, reported growth for CC(=O)OC1C=CC(OC(C)=O)O1 (stereo unspecified) stands at 92.4

For reference, reported growth for COc1ccc(/C=C2\CCCC3C2=Nc2ccccc2NC3c2ccc(OC)cc2)cc1 (stereo unspecified) stands at 25.7

For reference, reported growth for CS(=O)(=O)c1nccc(-c2c(-c3cccc(O)c3)nc3sccn23)n1 stands at 91.5

###

system: SN12C renal; test: NCI-60 one-dose screen, 48 h; settings: 10 µM
Compounds without any hit were thinned out: in the full panel of roughly 83,000, 20% have a hit. Activity calls are given as the source filed them. Rule for the calls: active = growth percent below 10; inactive = the rest.
Respond only with the outcome that fits, drawn from active, inactive

Fill in: this test's call for CC(C)(C)OC(=O)CN1CCc2c(sc3ncnc(N/N=C/c4cccc5ccccc45)c23)C1 is ___
inactive

Fill in: this test's call for C=CCN(CC=C)C(=O)[C@H](CC)[C@@H]1CC[C@@H](C)[C@@H]([C@H](C)[C@@H](O)[C@@H](C)C(=O)[C@H](CC)C2O[C@]3(C=C[C@@H](O)[C@]4(CC[C@@](C)([C@H]5CC[C@](O)(CC)[C@H](C)O5)O4)O3)[C@H](C)C[C@@H]2C)O1 (stereo partly drawn) is ___
active

Fill in: this test's call for O=C(CCCCC(=O)Oc1c(Cl)cc(Cl)cc1[N+](=O)[O-])Oc1c(Cl)cc(Cl)cc1[N+](=O)[O-] is ___
inactive

###

test system: M14 melanoma; assay: NCI-60 one-dose screen, 48 h; conditions: 10 µM
About 83,000 compounds went through this panel and 20% of them were active in at least one assay; those are over-represented in the sample as a whole. The source made the active and inactive calls. Rule for the calls: active = growth percent below 10; inactive = the rest.
Respond only with the outcome that fits, drawn from active, inactive

Fill in: this test's call for COc1cc2c(cc1NC(=O)C(Cl)Cl)-c1ccc(NC(=O)C(Cl)Cl)cc1C2 is ___
inactive

Fill in: this test's call for COC1=CC(=O)OC(c2ccc(OC)cc2)C1 (stereo not drawn) is ___
inactive

Fill in: this test's call for Cc1ccc(-n2c(C)nn3c(=O)c4c5c(sc4nc23)CN(C)CC5)cc1 is ___
inactive

Fill in: this test's call for CCCCN(CCCC)C(=O)[C@H](CC)[C@@H]1CC[C@@H](C)[C@@H]([C@H](C)[C@@H](O)[C@@H](C)C(=O)[C@H](CC)C2O[C@]3(C=CC(=O)[C@]4(CC[C@@](C)([C@H]5CC[C@](O)(CC)[C@H](C)O5)O4)O3)[C@H](C)C[C@@H]2C)O1 (stereo partly drawn) is ___
inactive

Fill in: this test's call for C#C[C@]1(O)CCC2C3CCc4cc(OC5CCCC5)ccc4C3CC[C@@]21C (stereo partly drawn) is ___
inactive

Fill in: this test's call for COc1cc(-c2nn(-c3cccc(NC(=O)CN4CCOCC4)c3)cc2-c2cccnc2)ccc1Cl is ___
inactive

Fill in: this test's call for CC(=O)Nc1ccc(CC[C@H]2CCC/C=C/[C@@H]3C[C@H](O)C[C@H]3[C@H](O)/C=C/C(=O)O2)cc1 is ___
active

Fill in: this test's call for c1ccc2c(c1)Cc1ccccc1N2CCN1CCCCC1 is ___
inactive
